Cited source for all entries: paper PMC7534330

- TEST_METHOD_NOTES: Pharmacokinetics and absolute bioavailability of five compounds after oral and i.v. administration (UHPLC-MS/MS)
- Format: in vivo
- CONDITIONS: SD, in vivo; rat, oral administration of pure compound; A5 7.40, A6 11.60, DSS 16.00, TFSA 50.00, TMCA 3.11 mg/kg; n = 6
- Method: A Thermo Hypersil Gold C18 column (3.0 × 100 mm, i.d.; 3 μm) was used for chromatographic separation. An aqueous 10 mM ammonium acetate solution (A) and acetonitrile (B) were selected as the mobile phase components. […] The elementary pharmacokinetic parameters of plasma samples were analyzed by DAS 2.0 pharmacokinetic software. […]
RESULT_TYPE: Cmax (ng/mL)
Could you give me the number in ng/mL? Just the number is fine.

Query string: // query Cmax value for entry COc1cc(C=CC(=O)O)cc(OC)c1OC [TMCA, 3,4,5-trimethoxycinnamic acid]
Result string: 1110
